# Target or system: E. coli RNA polymerase σ70 holoenzyme (Escherichia coli (strain K12), UniProt P0A8T7+P0A8V2)
# Assay info: Fluorescence-detected assay of inhibition of Escherichia coli RNA polymerase
# Type: biochemical
# Recorded conditions: T4 N25 promoter DNA, RiboGreen fluorescence, read-out: RNAP-inhibitory activity E. coli RNAP IC50
pIC50: −log10 of the molar value.
pIC50 values for the compounds below.
Assay endpoint: pIC50

>>> numeric_value("O=C(NCCc1ccc(Oc2ccc(Cl)cc2)cc1)c1c(O)cc(O)cc1O")
5.77
>>> numeric_value("O=C(NCc1ccc(Oc2ccc(F)cc2)cc1)c1c(O)cc(O)cc1O")
6.38
>>> numeric_value("Cc1cc(Oc2ccc(F)cc2)ccc1CNC(=O)c1c(O)cc(O)cc1O")
6.41
>>> numeric_value("O=C(NCc1ccc(Cl)cc1)c1c(O)cc(O)cc1O")
6.40
>>> numeric_value("COc1cc(Oc2ccc(F)cc2)ccc1CNC(=O)c1c(O)cc(O)cc1O")
6.21
>>> numeric_value("Cc1ccc(Oc2ccc(CCNC(=O)c3c(O)cc(O)cc3O)cc2)cc1")
6.10
>>> numeric_value("CN(CCc1ccc(Cl)cc1)C(=O)c1c(O)cc(O)cc1O")
6.01
>>> numeric_value("O=C(NCCc1ccc(Oc2cccc(N3CCOCC3)c2)cc1)c1c(O)cc(O)cc1O")
5.89
>>> numeric_value("O=C(NCCc1ccc(Oc2ccc(Cl)cc2)cc1)c1c(O)cc(O)c(Cl)c1O")
6.14
>>> numeric_value("O=C(NCCc1ccc(Cl)cc1)c1c(O)c(Cl)c(O)c(Cl)c1O")
4.85
>>> numeric_value("O=C(NCCc1ccc(Oc2cccc(Cl)c2)cc1)c1c(O)cc(O)cc1O")
6.19
